assayed.system: T1, human α9 integrin (human, UniProt Q13797 30-1035)
T1 sequence: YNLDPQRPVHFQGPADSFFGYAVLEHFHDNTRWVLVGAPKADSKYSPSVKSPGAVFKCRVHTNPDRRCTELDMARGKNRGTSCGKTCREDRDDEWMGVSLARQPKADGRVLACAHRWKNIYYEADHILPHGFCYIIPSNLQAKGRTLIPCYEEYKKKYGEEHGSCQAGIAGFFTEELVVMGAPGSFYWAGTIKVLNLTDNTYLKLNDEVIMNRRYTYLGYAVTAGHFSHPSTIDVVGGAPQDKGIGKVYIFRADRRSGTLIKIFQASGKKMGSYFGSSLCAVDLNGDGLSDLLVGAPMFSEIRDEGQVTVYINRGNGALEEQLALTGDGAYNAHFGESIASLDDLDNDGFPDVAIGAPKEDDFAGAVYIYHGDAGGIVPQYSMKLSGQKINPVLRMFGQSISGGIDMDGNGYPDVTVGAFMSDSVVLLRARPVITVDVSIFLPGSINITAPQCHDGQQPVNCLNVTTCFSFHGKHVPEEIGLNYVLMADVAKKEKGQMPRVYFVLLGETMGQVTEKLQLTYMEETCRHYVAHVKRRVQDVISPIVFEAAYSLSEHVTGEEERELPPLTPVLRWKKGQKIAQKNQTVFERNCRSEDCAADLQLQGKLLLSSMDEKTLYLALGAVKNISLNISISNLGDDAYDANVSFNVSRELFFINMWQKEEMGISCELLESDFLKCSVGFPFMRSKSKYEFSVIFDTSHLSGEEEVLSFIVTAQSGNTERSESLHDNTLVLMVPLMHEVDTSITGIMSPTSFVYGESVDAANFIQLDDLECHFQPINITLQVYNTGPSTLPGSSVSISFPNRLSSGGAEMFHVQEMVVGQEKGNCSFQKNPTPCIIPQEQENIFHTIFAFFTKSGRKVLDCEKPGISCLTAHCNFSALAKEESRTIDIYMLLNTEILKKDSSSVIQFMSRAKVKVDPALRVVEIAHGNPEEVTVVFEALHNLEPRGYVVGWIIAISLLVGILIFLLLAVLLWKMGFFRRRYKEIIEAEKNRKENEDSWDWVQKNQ
assay.summary: cell-based or functional assay
# IC50 of inhibition of α9-dependent cell adhesion annotations
Give your result in µg/mL as a bare value.

INSERT INTO assay_data (binder, result_unit, reported_value) VALUES
  ('MA9-413 scFv-Fc (Fc fusion, Divalent scFv-Fc with mouse IgG1 Fc, expressed in CHO-DG44; also called ANM-2; not shown: Fc region of mouse IgG1 and its junction to the scFv) scFv: EVQLVESGGGVVRPGGSLRLSCAASGFAFGDYGMSWVRQAPGKGLEWVSGINWNGGSTGYADSVKGRFTTSRDNAKNSLYLQMNSLRAEDTALYYCARDENYDILTGYYYYGMDVWGQGTTVTVSSGGGGSGGGGSGGGGSQSVVTQPPSVSAAPGQKVTISCSGSSSNIGNNYVSWYQQLPGTAPKLLIYDNNKRPSGIPDRFSASKSGTSATLGITGLQTGDEADYYCGTWDSSLTVWAFGGGTKLTVLG', 'µg/mL', 48.5),
  ('HA9-212 scFv-Fc (Fc fusion, not shown: a dimerising Fc or GST) scFv: EVQLVESGGGVVRPGGSLRLSCAASGFAFGEYGMSWVRQAPGKGLEWVSGINWNGGSTGYADSVQGRFTTSRDNAKNSLYLQMNSLRAEDTALYYCARDENYDILTGNYYYGMDVWGQGTTVTVSSGGGGSGGGGSGGGGSQSVVTQPPSVSAAPGQKVTISCSGSSSNIGNNYVSWYQQLPGTAPKLLIYDNNKRPSGIPDRFSASKSGTSATLGITGLQTGDEADYYCGTWDSSLTVWAFGGGTKLTVLG', 'µg/mL', 0.053);

Now take the following binder into account.
In plain terms, HA9-143 scFv-Fc (Fc fusion, not shown: a dimerising Fc or GST) scFv: EVQLVESGGGVVRPGGSLRLSCAASGFAFGEYGMSWVRQAPGKGLEWVSGINWNGGSTGYADSVKGRFTTSRDNAKNSLYLQMNSLRAEDTALYYCARDENYDILTGHYYYGMDVWGQGTTVTVSSGGGGSGGGGSGGGGSQSVVTQPPSVSAAPGQKVTISCSGSSSNIGNNYVSWYQQLPGTAPKLLIYDNNKRPSGIPDRFSASKSGTSATLGITGLQTGDEADYYCGTWDSSLTVWAFGGGTKLTVLG has a documented IC50 of inhibition of α9-dependent cell adhesion of 0.42
